Please provide measured absorbance at 450 nm for the entries that follow.
- assay.system: bovine IgG
- assay.protocol: ELISA, coated antigen, E. coli supernatant
Don't forget the unit after the value.

Let me know recorded absorbance at 450 nm for SVG13 (VHH) VHH: QVQLQESGGGLVQPGGSLRLSCEASGFTFDDYGMSWVRQAPGKGLEWVSSLTPNGGSTYYADSVKGRFTISRDNAKNTLYLQMNSLKPEDTALYYCAKNSYYGAMDYWGKGTLVTVSS , thanks.
0.272 A450

Let me know recorded absorbance at 450 nm for SVG18 (VHH, not shown: large carriers) VHH: QVQLQQSGGGLVQPGGSLRLSCAASGFTFSSYAMSWVRQAPGKGLEWVSAINSGGDIISYADSVKGRFTISRDNAKNTLYLQMNSLKPEDTAVYYCAKSPIVRTYGGYDYWGQGTQVTVSS , thanks.
0.124 A450

Let me know recorded absorbance at 450 nm for SVG24 (VHH, not shown: large carriers) VHH: QVQLQQSGGGLVQAGGSLRLSCAASGRTFSTYNIAWFRQAPGKEREFVTAITWGSGNTYYADSVKGRFTISRDNAKNTVFLQMNSLKPDDTAVYYCAARRSLGPTMAFAYEYWGQGTQVTVSS , thanks.
0.075 A450

Let me know recorded absorbance at 450 nm for SVG07 (VHH, not shown: large carriers) VHH: QVQLQESGPGLVKPSQTLSLTCTVSGGSITTTAYAWSWIRQPPGKGLEWMGAIRFDGTTDYSPSLKSRISISRDTSNNQFSLRMSSVTPEDTAVYYCARYGVVSDHGGLDYWGQGTQVTVSS , thanks.
0.121 A450
